system: UO-31 renal; test: NCI-60 one-dose screen, 48 h; conditions: 10 µM unless noted
This is part of a sample that, as a whole, favours compounds with a hit. Of some 83,000 tested, about 20% had one in any assay. Calls of active or inactive are those of the source. The calls were made as follows: active = growth percent below 10; inactive = the rest.
Possible outcomes: active, inactive

{"molecule": "CCCN=C(N)c1ccc(NC(=O)c2ccc(C(=O)Nc3ccc(C(N)=NCCC)cc3)cc2)cc1", "targetEntity": "UO-31 renal", "className": "inactive"}
{"molecule": "C#Cc1cccc(NC(=O)Nc2cccc(N=C=S)c2)c1", "targetEntity": "UO-31 renal", "className": "inactive"}
{"molecule": "CCCCCCCCOc1ccc(/C=N/Nc2cc(C)nc3ccc(Cl)cc23)cc1", "targetEntity": "UO-31 renal", "className": "inactive"}
{"molecule": "C#CCn1cc(C=C2C(=O)NC(=S)NC2=O)c2cc(Cl)ccc21", "targetEntity": "UO-31 renal", "className": "active"}
{"molecule": "Nc1nc(SN=Nc2ccc(S(N)(=O)=O)cc2)c2[nH]cnc2n1", "targetEntity": "UO-31 renal", "className": "inactive"}
{"molecule": "Cc1ccc(/C=C/C(=O)c2ccc(N)cc2)c(C)c1", "targetEntity": "UO-31 renal", "className": "inactive"}
{"molecule": "COc1cc2nc(-c3ccc(C(F)(F)F)cc3)cc(OCCCN3CCC(O)CC3)c2cc1OC", "targetEntity": "UO-31 renal", "className": "inactive"}
{"molecule": "O=C(CCN1CCCC1)Nc1ccc2c(Nc3ccccc3)c3ccccc3nc2c1", "targetEntity": "UO-31 renal", "className": "active"}
{"molecule": "C[C@]12C[C@H]1CC[C@]1(C)[C@@H]2CC[C@@]23C[C@H](CC[C@H]21)[C@@](O)(CO)C3", "targetEntity": "UO-31 renal", "className": "inactive"}
{"molecule": "COC(=O)C(c1ccccc1)C(CC(=O)c1ccccc1)c1ccccc1 (stereo not given)", "targetEntity": "UO-31 renal", "className": "inactive"}
{"molecule": "CO[C@@H]1[C@H](N(C)C(=O)c2ccccc2)C[C@@H]2O[C@]1(C)n1c3ccccc3c3c4c(c5c6ccccc6n2c5c31)C(=O)NC4=O", "targetEntity": "UO-31 renal", "className": "active"}
{"molecule": "Cc1ccc(S(=O)(=O)Nc2ccc(Cl)cc2)cc1", "targetEntity": "UO-31 renal", "className": "inactive"}
{"molecule": "O=C1c2cccnc2C(=O)c2nc3cc(N4CCN(C5CC5)CC4)ccc3nc21", "targetEntity": "UO-31 renal", "className": "active"}
{"molecule": "COc1ccc(NS(=O)(=O)c2ccc(C)cc2)c([N+](=O)[O-])c1", "targetEntity": "UO-31 renal", "className": "inactive"}
{"molecule": "COc1cc(/C=C/C(=O)c2c(C)oc3nc[nH]c(=O)c23)ccc1O", "targetEntity": "UO-31 renal", "className": "inactive"}
{"molecule": "Cc1cc(Nc2cccc(C(F)(F)F)c2)n2c(nc3ccccc32)c1C#N", "targetEntity": "UO-31 renal", "className": "inactive"}
{"molecule": "CC1=CC2(C)/C=C(C)/C=C\\CC(O)/C=C3/C=CC(=C4C(=O)OC2(CC1C)C4=O)OC3 (stereo not given)", "targetEntity": "UO-31 renal", "className": "active"}
{"molecule": "CNC(=O)c1c(NC(=O)c2ccc(C(C)C)cc2)sc2c(CN(C)C)c(O)ccc12", "targetEntity": "UO-31 renal", "className": "inactive"}
{"molecule": "Cc1ccc(C2C3CC4CCCCC4N3[C@@]3(C(=O)Nc4cc(Cl)ccc43)C2C(=O)c2nc3ccccc3[nH]2)cc1 (stereo not given in full)", "targetEntity": "UO-31 renal", "className": "inactive"}
{"molecule": "CC(N)C(=O)NNc1n[nH]c(=S)n1N (stereo not given)", "targetEntity": "UO-31 renal", "className": "inactive"}
